Entries and their TC25 values follow.
System: Vero cells
Assay: Cell viability (MTT) of uninfected test-compound control wells
Format: cell-based, African green monkey
Settings: HSV-1 (E-377) line, cell viability reduced by 25%
observation-type: TC25 (µg/mL)

O=c1[nH]c(=O)n([C@@H]2O[C@H](CO)[C@H]2CO)cc1Br [Example 43]: 18.4
O=c1[nH]c(=O)n([C@@H]2O[C@H](CO)[C@H]2CO)cc1C=CBr [Example 44]: 289

* * *

Entries and their TC25 values follow.
System: Vero cells
Assay: Cell viability (MTT) of uninfected test-compound control wells
Type: cell-based, African green monkey
Conditions: HSV-1 (E-377) line, cell viability reduced by 25%
observation-type: TC25

O=c1[nH]c(=O)n([C@@H]2O[C@H](CO)[C@H]2CO)cc1I: > 354 µg/mL
O=c1[nH]c(=O)n([C@@H]2O[C@H](CO)[C@H]2CO)cc1C=CI: > 380 µg/mL
O=c1[nH]c(=O)n([C@@H]2O[C@H](CO)[C@H]2CO)cc1C=CCl: > 289 µg/mL
